pIC50: −log10 of the molar value.
Several publications report pIC50 on Serine/threonine-protein kinase mTOR (Homo sapiens, UniProt P42345); those values are gathered here.

Recorded pIC50, per entry:
compound=CNc1ncc(-c2ccc3ncc4c(c3c2)n(-c2cn(C)nc2C)c(=O)n4C)cc1Cl result="> 8.52"
compound=CN(C)C(=O)c1ccc(NC(=O)Nc2ccc(-c3nc(N4CCOCC4)c4ncc(-c5cccnc5F)cc4n3)cc2)c(F)c1 result="> 7.30"
compound=Cc1nn(C)cc1-n1c(=O)n(C)c2cnc3ccc(-c4cncc(OC(C)C)c4)cc3c21 result=7.85
compound=Cc1nn(C)cc1-n1c(=O)n(C)c2cnc3ccc(-c4cncc(NC5CCC5)c4)cc3c21 result="> 8.52"
compound=Nc1ncc(-c2nc(N3CCOCC3)c3ncc(-c4cccc(NS(=O)(=O)C5CC5)c4)cc3n2)cn1 result="> 7.30"
compound=Cn1cc(-c2cnc3c(N4CCOCC4)nc(-c4ccc(NC(=O)Nc5ccc(C(N)=O)cc5)cc4)nc3c2)cn1 result="> 7.30"

// below: pIC50 requested for another compound
Incoming: Query: pIC50; subject: CC1Cc2nc(-c3ccc(NC(=O)NC4CC4)cc3)nc(N3CCOC[C@@H]3C)c2CS1(=O)=O (stereo partly shown)
Outgoing: > 7.00
